TESTED ON: Human recombinant MMP-9 (Homo sapiens)
Construct: made in house; host or cells: MMP-9-transfected HT1080 cells (spent media)
Sequence (P14780 107-707 limits assumed): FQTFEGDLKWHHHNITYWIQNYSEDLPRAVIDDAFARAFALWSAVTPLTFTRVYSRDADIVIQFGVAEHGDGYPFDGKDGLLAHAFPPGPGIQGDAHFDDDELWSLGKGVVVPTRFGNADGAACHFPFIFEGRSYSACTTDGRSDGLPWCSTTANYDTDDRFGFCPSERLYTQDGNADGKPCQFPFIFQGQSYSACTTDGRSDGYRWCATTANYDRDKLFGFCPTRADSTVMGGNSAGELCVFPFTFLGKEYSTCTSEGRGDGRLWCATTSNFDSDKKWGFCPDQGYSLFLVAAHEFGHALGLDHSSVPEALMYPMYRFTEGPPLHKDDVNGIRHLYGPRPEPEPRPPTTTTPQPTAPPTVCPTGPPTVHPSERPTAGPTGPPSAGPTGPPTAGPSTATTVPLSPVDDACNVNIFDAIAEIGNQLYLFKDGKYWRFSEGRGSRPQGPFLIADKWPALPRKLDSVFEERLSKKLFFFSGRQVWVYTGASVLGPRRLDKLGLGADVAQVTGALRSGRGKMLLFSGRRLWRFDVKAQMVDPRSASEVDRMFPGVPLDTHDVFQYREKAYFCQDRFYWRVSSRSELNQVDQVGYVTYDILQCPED
ASSAY OVERVIEW: In vitro MMP inhibition analysis (fluorogenic peptide substrate cleavage), Ki
Type: biochemical
EXPERIMENTAL CONTEXT: Table 2
MEASURED QUANTITY: Ki (nM)

1 = O=C(NO)C1(S(=O)(=O)c2ccc(-c3ccc(-c4ccccc4)cn3)cc2)CCN(C2CC2)CC1
2 = CC(=O)Nc1cnc(-c2ccc(S(=O)(=O)C3(C(=O)NO)CCOCC3)cc2)cn1
3 = COC(=O)c1ccc2cc(-c3ccc(S(=O)(=O)C4(C(=O)NO)CCOCC4)cc3)ccc2c1
Output the entries ranked by Ki from maximum down to minimum. Please, when replying, give the labels in the order that was requested.
2, 3, 1

====

TESTED ON: Human recombinant MMP-2 (Homo sapiens, UniProt P08253)
Construct: made in house; host or cells: MMP-2-transfected p2AHT2 cells
Sequence (P08253 110-660): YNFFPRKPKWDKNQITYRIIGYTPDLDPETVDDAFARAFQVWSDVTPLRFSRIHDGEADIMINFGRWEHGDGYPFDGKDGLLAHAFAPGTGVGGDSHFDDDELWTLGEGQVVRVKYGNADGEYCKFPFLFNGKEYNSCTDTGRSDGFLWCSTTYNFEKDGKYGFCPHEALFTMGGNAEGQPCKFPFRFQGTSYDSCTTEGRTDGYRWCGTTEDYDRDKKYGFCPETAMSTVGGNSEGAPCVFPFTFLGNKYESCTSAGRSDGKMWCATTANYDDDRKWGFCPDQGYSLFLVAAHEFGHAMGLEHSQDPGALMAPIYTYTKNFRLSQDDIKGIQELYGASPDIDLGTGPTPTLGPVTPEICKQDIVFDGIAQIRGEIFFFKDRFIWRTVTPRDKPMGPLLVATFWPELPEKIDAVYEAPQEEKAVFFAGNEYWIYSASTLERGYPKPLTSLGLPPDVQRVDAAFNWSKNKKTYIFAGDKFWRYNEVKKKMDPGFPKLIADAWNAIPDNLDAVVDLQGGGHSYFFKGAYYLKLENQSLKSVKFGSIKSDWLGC
ASSAY OVERVIEW: In vitro MMP inhibition analysis (fluorogenic peptide substrate cleavage), Ki
Format: biochemical
EXPERIMENTAL CONTEXT: Table 2
pKi: −log10 of the molar value.
MEASURED QUANTITY: pKi

| CHEMICAL STRUCTURE | pKi |
| --- | --- |
| O=C(NO)C1(S(=O)(=O)c2ccc(-c3ccc(OCCCC(F)(F)F)cc3)cc2)CCOCC1 | 9.52 |

1 = CCN1CCC(C(=O)NO)(S(=O)(=O)c2ccc(-c3ccc(OCCOC)c(F)c3)cc2)CC1
2 = CCc1ccc(-c2ccc(S(=O)(=O)C3(C(=O)NO)CCOCC3)cc2)cc1
3 = O=C(NO)C1(S(=O)(=O)c2ccc(-c3cnc(C4CCCC4)cn3)cc2)CCOCC1
Order field: pKi | Direction: descending (largest first) Please, when replying, give the labels in the order that was requested.
2, 1, 3
(2: 9.74, 1: 9.27, 3: 8.51)

====

TESTED ON: Human recombinant MMP-1 (Homo sapiens)
Construct: made in house; host or cells: MMP-1-transfected HT-1080 cells (spent media)
Sequence (P03956 100-469): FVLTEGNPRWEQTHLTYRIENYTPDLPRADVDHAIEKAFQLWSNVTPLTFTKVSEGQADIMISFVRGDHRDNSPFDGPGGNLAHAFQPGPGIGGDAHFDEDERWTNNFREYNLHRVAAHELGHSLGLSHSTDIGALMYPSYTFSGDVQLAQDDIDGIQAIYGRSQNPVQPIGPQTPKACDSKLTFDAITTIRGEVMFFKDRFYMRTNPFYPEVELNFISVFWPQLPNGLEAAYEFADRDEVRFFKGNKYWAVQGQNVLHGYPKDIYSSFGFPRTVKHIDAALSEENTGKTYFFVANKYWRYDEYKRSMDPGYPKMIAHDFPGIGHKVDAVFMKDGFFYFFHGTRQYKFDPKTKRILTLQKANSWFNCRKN
ASSAY OVERVIEW: In vitro MMP inhibition analysis (fluorogenic peptide substrate cleavage), Ki
Format: biochemical
EXPERIMENTAL CONTEXT: Table 1
MEASURED QUANTITY: Ki (µM)

Solved cases (4 shown):
| CHEMICAL STRUCTURE | Ki (µM) |
| --- | --- |
| COCCN1CCC(C(=O)NO)(S(=O)(=O)c2ccc(-c3ccc(OC(F)(F)C(F)F)cc3)cc2)CC1 | 0.335 |
| COCCN1CCC(C(=O)NO)(S(=O)(=O)c2ccc(-c3ccc(CCCC(F)(F)F)cn3)cc2)CC1 | 6.37 |
| O=C(NO)C1(S(=O)(=O)c2ccc(-c3ccc(OC(F)(F)C(F)F)cc3)cc2)CCN(CCl)CC1 | 0.65 |
| O=C(NO)C1(S(=O)(=O)c2ccc(-c3ccc(CCCC(F)(F)F)cc3)cc2)CCOCC1 | 2.71 |

1 = COCCN1CCC(C(=O)NO)(S(=O)(=O)c2ccc(-c3ccc(CCC(C)(F)F)cn3)cc2)CC1
2 = O=C(NO)C1(S(=O)(=O)c2ccc(-c3ccc(CCCC(F)F)cc3)cc2)CCOCC1
Which shows the larger Ki value: 1 or 2 ? Selection: enter the item's label.
1
